# System: SNB-19 CNS
# measurement.notes: NCI tumour cell line growth inhibition, 48 h

{"compound": "O=C1Oc2cc3c(c4cccc1c24)O[C@H](c1ccccc1)[C@@H](c1ccccc1)[C@@H]3c1ccc(Cl)cc1", "TGI": "> 100 µM"}
{"compound": "COc1ccc2c(c1OC)C(=O)c1cnccc1C2=O", "TGI": "> 100 µM"}
{"compound": "Nn1c(N=Nc2c(O)[nH]c3c(Cl)cc(Cl)cc23)n[nH]c1=S", "TGI": "> 100 µM"}
{"compound": "CCN(CC)CCN(C(=O)c1ccc(F)cc1)c1ccccc1N", "TGI": "> 10 µM"}
{"compound": "CC(=O)Oc1ccc(C(c2ccc(OC(C)=O)cc2)c2ccccn2)cc1", "TGI": "> 100 µM"}
{"compound": "Nc1ccc([C@H]2C(=O)N[C@H]3CCC[C@H]32)cc1", "TGI": "> 100 µM"}
{"compound": "Cc1cc2c(C)n(Cc3ccc(Cl)cc3Cl)nc2c(C(=O)O)c1C", "TGI": "> 100 µM"}
{"compound": "COc1ccc2nc(NC(=O)C(=O)C(C#N)c3ccc(Cl)c(Cl)c3)sc2c1 (stereo not given)", "TGI": "> 100 µM"}
{"compound": "COC1OC2COC(c3ccccc3)OC2C(O)C1Br (stereo not given)", "TGI": "> 100 µM"}
{"compound": "CCOC(OC1=C(C#N)CCCC1)C(C)[Se]c1ccccc1 (stereo not given)", "TGI": "> 100 µM"}
{"compound": "O=C(O)C1=C(C(=O)Nc2ccc(NC(=O)C3=C(C(=O)O)C4C=CC3C4)cc2)C2C=CC1C2", "TGI": "> 100 µM"}
{"compound": "CC1=C(C(=O)OC(C)C)C(c2ccccc2C(F)(F)F)C(C(=O)OC(CO[N+](=O)[O-])CO[N+](=O)[O-])=C(C)N1 (stereo not given)", "TGI": "> 100 µM"}
{"compound": "COc1cc(/C=C/C(=O)c2cccnc2Nc2ccc(F)cc2)cc(OC)c1OC", "TGI": "33.2 µM"}
{"compound": "CC(C)(C)C1CCC2c3c([nH]c4ccccc34)C3C(=O)N(c4ccc5c(c4)C(=O)c4ccccc4C5=O)C(=O)C3C2C1 (stereo not given)", "TGI": "> 100 µM"}
{"compound": "CCc1n[nH]c(=O)n1CCO", "TGI": "> 100 µM"}

---

# System: NCI-H522 lung
# measurement.notes: NCI tumour cell line growth inhibition, 48 h
readout.kind: log10(TGI) (log10 of the value in µM)

{"compound": "O=C1OC(CN2CCOCC2)CN1/N=C/c1ccc([N+](=O)[O-])o1 (stereo unspecified)", "log10(TGI)": 1.86}
{"compound": "Clc1nc(Cl)c2ncn(Cc3ccc(Cn4cnc5c(Cl)nc(Cl)nc54)cc3)c2n1", "log10(TGI)": 1.40}
{"compound": "O=C1OC(OCC#CCOC2OC(=O)C(Cl)=C2Cl)C(Cl)=C1Cl (stereo unspecified)", "log10(TGI)": 0.57}
{"compound": "CCn1c2ccccc2c2cc(C(O)c3cccc4ncccc34)ccc21 (stereo unspecified)", "log10(TGI)": -0.97}
{"compound": "Cc1nc(Nc2nc3ccccc3o2)nc(-c2cccc([N+](=O)[O-])c2)c1C(=O)Nc1ccc(F)c(Cl)c1", "log10(TGI)": 0.76}
{"compound": "CC(=O)NNc1nc(C)c(C(=O)NNC(=O)C(=O)Nc2c(C)cccc2C(C)(C)C)s1", "log10(TGI)": 1.76}
{"compound": "CCCCCC(O)C1C(=O)OC(C)C(O)/C=C/C=C/C=C/C=C/C=C(\\C)C(O)C(O)C(O)CC(O)CC(O)CC(O)CC(O)CC1O (stereo unspecified)", "log10(TGI)": 0.52}
{"compound": "O=C(CC1C(=O)c2ccccc2C1=C1C(=O)c2ccccc2C1=O)c1ccccc1 (stereo unspecified)", "log10(TGI)": 1.99}
{"compound": "CC(=O)O[C@@H](C1C[C@@H](C)[C@H]2[C@@](O)(O1)[C@H](O)[C@@]1(C)C3=CC[C@H]4C(C)(C)[C@@H](OC5OCC(O)C(O)C5O)CC[C@@]45C[C@@]35CC[C@]21C)C(C)(C)O (stereo partly specified)", "log10(TGI)": 1.57}
{"compound": "COc1cc(/C=C/C(=O)c2cccnc2Nc2ccc(F)cc2)cc(OC)c1OC", "log10(TGI)": 0.85}
{"compound": "O=C(CCN1CCOCC1)C(=Cc1ccccc1)C(=O)CCN1CCOCC1", "log10(TGI)": 0.45}
{"compound": "Cc1cc(OCc2nnc3n2N=C(c2ccc(Cl)cc2Cl)CS3)ccc1Cl", "log10(TGI)": 1.81}
{"compound": "COC(=O)[C@@H](C)C[C@H](Cc1ccccc1)NC(=O)c1csc([C@@H](C[C@H](C(C)C)N(C)C(=O)[C@H](C)NC(=O)[C@H]2CCCCN2C)OC(C)=O)n1", "log10(TGI)": 0.13}
{"compound": "C=CCCCc1ccc(C(O)CCCCCCCCCCCC)o1 (stereo unspecified)", "log10(TGI)": 1.47}

---

# Test system: M14 melanoma
# measurement.notes: NCI tumour cell line growth inhibition, 48 h
Measured TGI, listed per entry for reference.
readout.kind: TGI

{"compound": "CC1=NN(C(=O)CC(=O)Nc2cccc(Cl)c2)C(=O)C1N=Nc1ccc(C(=O)O)cc1 (centres undefined)", "obs.value": "> 100 µM"}
{"compound": "O=C(CSC1=NNC2(C(=O)N1)c1ccccc1-c1ccccc12)NC(=S)Nc1ccccc1", "obs.value": "> 10 µM"}
{"compound": "Cn1c(=O)c(Oc2ccc(F)cc2F)cc2cnc(NCCS(C)(=O)=O)nc21", "obs.value": "> 25 µM"}
{"compound": "C[N+](C)=c1nc(N2CCc3ccccc3C2)ss1", "obs.value": "> 100 µM"}

---

Recorded TGI for the following compounds
# Test system: A549 NSCLC
# measurement.notes: NCI tumour cell line growth inhibition, 48 h
readout.kind: TGI

{"structure": "CN1C(Cl)=NS(=O)(=O)c2ccccc21", "tested.on": "A549 NSCLC", "readout.kind": "TGI", "obs.value": "> 100 µM"}
{"structure": "COc1ccc(CCNC(=O)[C@H]2CCCC[C@@H]2CCO)cc1OC", "tested.on": "A549 NSCLC", "readout.kind": "TGI", "obs.value": "> 100 µM"}
{"structure": "Cc1cc(-c2nc3cccc(F)c3s2)ccc1N", "tested.on": "A549 NSCLC", "readout.kind": "TGI", "obs.value": "> 100 µM"}

---

# System: HOP-62 NSCLC
# measurement.notes: NCI tumour cell line growth inhibition, 48 h

{"molecule": "CCn1c2ccccc2c2cc(C(O)c3cccc4ncccc34)ccc21 (stereo unspecified)", "tested.on": "HOP-62 NSCLC", "TGI": "> 73.3 µM"}
{"molecule": "C[C@H]1C(=O)CC[C@]2(C)CCC(C(C)(C)O)CC12O (stereo partly specified)", "tested.on": "HOP-62 NSCLC", "TGI": "> 100 µM"}
{"molecule": "N#CC(C#N)=Cn1c(=S)[nH]c2ccccc21", "tested.on": "HOP-62 NSCLC", "TGI": "> 100 µM"}
{"molecule": "O=C(Nc1ccc(I)cc1F)c1cc(Cl)ccc1O", "tested.on": "HOP-62 NSCLC", "TGI": "8 µM"}
{"molecule": "CN(C)CCN(C(=Nc1ccccc1)N1CCCC1)c1ccccc1", "tested.on": "HOP-62 NSCLC", "TGI": "> 100 µM"}
{"molecule": "COc1ccc(C(=O)Nc2ccc3oc(-c4ccccc4)nc3c2)cc1", "tested.on": "HOP-62 NSCLC", "TGI": "> 100 µM"}
{"molecule": "Cc1cccc(C(C)(C)C)c1NC(=O)CC1Sc2ccccc2NC1=O (stereo unspecified)", "tested.on": "HOP-62 NSCLC", "TGI": "> 100 µM"}
{"molecule": "COC(=O)C1=C(c2ccc3c(c2)OCO3)OC(c2cc(OC)c(OC)c(OC)c2)C1 (stereo unspecified)", "tested.on": "HOP-62 NSCLC", "TGI": "> 100 µM"}
{"molecule": "CCOC(=O)c1c(C)c(C)n2c1NC(=O)C2", "tested.on": "HOP-62 NSCLC", "TGI": "> 100 µM"}
{"molecule": "COCCOC(=O)C(C)=[N+]=[N-]", "tested.on": "HOP-62 NSCLC", "TGI": "> 100 µM"}
{"molecule": "O=C(O)C1=C(C(=O)Nc2ccc(NC(=O)C3=C(C(=O)O)C4C=CC3C4)cc2)C2C=CC1C2", "tested.on": "HOP-62 NSCLC", "TGI": "> 100 µM"}

---

# Test system: NCI-H23 lung
# measurement.notes: NCI tumour cell line growth inhibition, 48 h
Collected TGI values appear next to each entry.

{"compound": "CC(=O)Oc1ccc(C(c2ccc(OC(C)=O)cc2)c2ccccn2)cc1", "TGI": "> 100 µM"}
{"compound": "O=C1NC(=O)C2C1N(Cc1ccccc1)C(=O)N2Cc1ccccc1 (centres undefined)", "TGI": "> 100 µM"}
{"compound": "COc1ccc(OC)c(Nc2nc(-c3c(C)nc4sccn34)cs2)c1", "TGI": "> 100 µM"}
{"compound": "O=C(CSC1=NNC2(C(=O)N1)c1ccccc1-c1ccccc12)NC(=S)Nc1ccccc1", "TGI": "> 10 µM"}
